- tested-target: T1, CsbD L85I/H144A, tip adhesin of CS17 fimbriae on wild type ETEC strain LSN02-013966/A (Escherichia coli (ETEC) strain …)
- T1 chain: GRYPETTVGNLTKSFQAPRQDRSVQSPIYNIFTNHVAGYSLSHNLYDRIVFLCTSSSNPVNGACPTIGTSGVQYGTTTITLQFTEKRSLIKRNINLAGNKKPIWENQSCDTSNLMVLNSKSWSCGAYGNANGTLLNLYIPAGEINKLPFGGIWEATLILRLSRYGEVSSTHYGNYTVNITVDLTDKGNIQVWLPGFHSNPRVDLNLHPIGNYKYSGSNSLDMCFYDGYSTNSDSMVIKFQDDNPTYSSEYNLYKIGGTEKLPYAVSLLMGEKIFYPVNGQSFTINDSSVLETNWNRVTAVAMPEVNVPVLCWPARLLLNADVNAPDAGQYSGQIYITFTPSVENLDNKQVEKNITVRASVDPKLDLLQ
- protocol-details: cell-based or functional assay
observed-property: MIC in HAI

The examples below pair each entry with its known result.
INSERT INTO assay_data (binder, value_reported) VALUES
  ('anti-CfaE mouse mAb P8D10 (antibody, V domains shown, also called full length P8D10 mAb) VH: QIQLVQSGPELKKPGETVKISCKASGYTFTNYGMNWVKQAPGKGLKWMGWINTYTGQSTYADDFKGRFAFSLETSASTAHLQISNLKNEDAATYFCARMEYGNYENALDYWGQGTSVTVSS VL: DIVMTQSHKFMSTSIGDRVSITCKASQDVSTAVVWYQQKPGHSPKLLIYSASYRYTGVPDRFTGSGSGTDFTFTISSVQAEDLAVYYCLQHFSTPRTFGGGTNLEIK', '> 250 µg/mL'),
  ('anti-CfaE mouse mAb P1F9 (antibody, V domains shown) VH: QVQLQQPGAELVKPGASVKLSCKASGYTFTSYWMHWVRQRPGQGLDWIGEIDPSDSYINYNQKFKGKATLTVDKSSSTAYMQLSSLTSEDSAVYYCGRKSLGVSVLAYWGQGTPVTVSA VL: DIVMTQSHKFMSTSVGDRVSISCTASQDVNAAVAWYQQKPGQSPKLLIYWASTRHTGVPDRFTGSGSGTDYTLTISSVQAEDLALYYCQQHYSTPLTFGAGTKLELK', '> 250 µg/mL'),
  ('anti-CotD mouse mAb P6B8 (antibody, V domains shown) VH: QVTLKESGPGILQPSQTLSLTCSFSGFSLSTSGMGVGWIRQPSGKGLEWLSHIWWDDEKRYNPALKSRLTISKDTSSNQVFLKIASVDTADTATYYCARIGDRSGHAGFVYWGQGTLVTVSA VL: DIKMTQSPSSMYASLGERVTITCKASQDINSYLSWFQQKPGKSPKTLIYRANRLVDGVPSRFSGSGSGQDYSLTISSLEYEDMGTYYCLQYDEFPYTFGGGTKLEIK', '> 250 µg/mL');

For record anti-CsbD mouse mAb P7C2 (antibody, V domains shown) VH: EVKLEESGGGLVQPGGSMKLSCAASGFTFSDAWMDWVRQSPEKGLEWVGKIRSEINDHATYYAESVKGRFTISRDDSKSGVYLQMNNLRAEDTGIYYCARDGYYGAMDYWGQGTSVTVSS VL: DVQITQSPSYLAASPGETITINCRSNKSISRYLAWYQEKPGKTNKLLIYSGSTLQSGIPSRFSGSGSNTDFTLTISSLEPEDFAMYYCQQHNEYPYTFGSGTKLEIK the listed MIC in HAI is 1 µg/mL

For record anti-CfaE mouse mAb P5C7 (antibody, V domains shown) VH: QIQLVQSGPELKKPGETVKISCKASGYTFTNYGMNWVKQAPGKGLKWMGWINTYTGEPTYTDDFKGRFAFSLETSASTAYLQINSLKTEDTATYFCARMEYGNYENAMDSWGQGTSVTVSS VL: DTVMTQSHKFMSTSVGDRVSITCKASQDVSTAVVWYQQKPGQSPKLLIYSASYRYTGVPDRFTGSGSGTDFTFTISSVQAEDLAVYYCLQHFNIPRTFGGGTKLEIK the listed MIC in HAI is > 250 µg/mL

For record anti-CsbD mouse mAb P9A5 (antibody, V domains shown, Isotype n.d) VH: EVQLQQFGAEVVKPGASVKISCKASGYTFTDYNIDWVKQSHGESLEWIGDISPNSEGTTYNQKFKGQATLTIDKSSTTAYMELRSLTSEDSAVYYCARGSGIWNGLDYWGQGTSVTVSS VL: DIVMTQSHKFMSTSVGDRVSITCKASQDVSTAVAWYQQKPGQSPQLLIYSSSYRYVGVPDRFTGSGSGTDFTFTISSVQAEDLAVYYCHQHYSLPYTFGGGTKLEIK the listed MIC in HAI is 3.9 µg/mL
